IC50 values for the molecules below.
# SYSTEM: Virion infectivity factor (Human immunodeficiency virus type 1 group M subtype B (isolate BH10)) + Virion infectivity factor (Human immunodeficiency virus type 1 group M subtype B (isolate BRU/LAI)) + Virion infectivity factor (Human immunodeficiency virus type 1 group M subtype B (isolate PCV12)) + Virion infectivity factor (Human immunodeficiency virus type 1 group M subtype B (isolate HXB2)) + DNA dC->dU-editing enzyme APOBEC-3G (Homo sapiens) (UniProt P69720+P69721+P69722+P69723+Q9HC16)
# EXPERIMENT: HIV-1 Vif–A3G interaction blockers – biochemical, TR-FRET, GST-Vif 1-94, biotin-A3G peptide, dose response retest, primary screen (AID 1117319);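 note: Vif residues 1-94 fused to GST binding biotinylated APOBEC3G peptide 110-148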
# COND: TR-FRET GST-Vif / biotin-A3G peptide binding
Records with an inconclusive call do not appear.

[
  {
    "MOLECULE": "Cc1cc(C(=O)CSc2nnnn2-c2ccccc2)c(C)n1CC1CCCO1 (stereo unspecified)",
    "IC50": "9.78 µM"
  },
  {
    "MOLECULE": "Cc1nc2ncccn2c1-c1csc(NCc2ccco2)n1",
    "IC50": "1.22 µM"
  },
  {
    "MOLECULE": "CCN1/C(=C/C=C/C=C/C=C/c2sc3ccccc3[n+]2CC)Sc2ccccc21",
    "IC50": "4.33 µM"
  },
  {
    "MOLECULE": "O=C(NCc1ccco1)c1cc(-c2cccc(Cl)c2)on1",
    "IC50": "36.9 µM"
  },
  {
    "MOLECULE": "O=C1C(Cl)=C(N2CCCCC2)C(=O)C(Cl)=C1c1cnc(N2CCCCC2)s1",
    "IC50": "4.21 µM"
  },
  {
    "MOLECULE": "C=C(C)C(=O)Nc1cccc(C2=NOC3(C2)C[C@H](C(N)=O)N(C(=O)COc2ccc(Cl)cc2)C3)c1 (stereo partly specified)",
    "IC50": "1.28 µM"
  },
  {
    "MOLECULE": "CCN(CC)C(=O)c1ccc2c(c1)C1C(Cl)C(Sc3ccccc3[N+](=O)[O-])CC1C(C(=O)O)N2 (stereo unspecified)",
    "IC50": "13 µM"
  },
  {
    "MOLECULE": "Cc1cccn2c(=O)c3cc(C(=O)NCc4ccco4)c(=N)n(CCc4ccccc4)c3nc12",
    "IC50": "34 µM"
  },
  {
    "MOLECULE": "CC(C(=O)O)N1C(=O)/C(=C/C=C/c2ccco2)SC1=S (stereo unspecified)",
    "IC50": "0.39 µM"
  },
  {
    "MOLECULE": "CCOc1ccc(NCC2CCOC(C)(C)C2)cc1 (stereo unspecified)",
    "IC50": "9.47 µM"
  },
  {
    "MOLECULE": "COc1cccc(C(C#N)N2CCCCC2)c1O (stereo unspecified)",
    "IC50": "79.2 µM"
  }
]

----------
IC50 values for the compounds below.
# SYSTEM: Virion infectivity factor (Human immunodeficiency virus type 1 group M subtype B (isolate BH10)) + Virion infectivity factor (Human immunodeficiency virus type 1 group M subtype B (isolate BRU/LAI)) + Virion infectivity factor (Human immunodeficiency virus type 1 group M subtype B (isolate PCV12)) + Virion infectivity factor (Human immunodeficiency virus type 1 group M subtype B (isolate HXB2)) + DNA dC->dU-editing enzyme APOBEC-3G (Homo sapiens) (UniProt P69720+P69721+P69722+P69723+Q9HC16)
# EXPERIMENT: HIV-1 Vif–A3G interaction blockers – biochemical, TR-FRET, GST-Vif 1-94, biotin-A3G peptide, dose response retest, primary screen (AID 1117319);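 note: Vif residues 1-94 fused to GST binding biotinylated APOBEC3G peptide 110-148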
# COND: TR-FRET GST-Vif / biotin-A3G peptide binding
Inconclusive results are not listed.

[
  {
    "COMPOUND": "Cc1nn(Cc2ccccc2)c(C)c1C(=O)OCC(=O)c1cc(C)n(C2CC2)c1C",
    "IC50": "80.5 µM"
  },
  {
    "COMPOUND": "O=C(NCc1ccccc1)c1ccc2nc(-c3ccco3)c(-c3ccco3)nc2c1",
    "IC50": "0.48 µM"
  },
  {
    "COMPOUND": "COc1ccc(N2CCN(c3nc4ccccc4nc3NS(=O)(=O)c3ccccc3)CC2)cc1",
    "IC50": "66.6 µM"
  },
  {
    "COMPOUND": "CN(C(=S)Nc1cccnc1)c1ccc(O)cc1",
    "IC50": "1.85 µM"
  },
  {
    "COMPOUND": "O=C(NCCS(=O)CCNC(=O)C(F)(F)F)C(F)(F)F",
    "IC50": "95 µM"
  },
  {
    "COMPOUND": "N#Cc1ccccc1CN1C(=O)S/C(=C/c2cccn2-c2ccc(C(=O)O)cc2)C1=O",
    "IC50": "19.8 µM"
  },
  {
    "COMPOUND": "O=[n+]1c2c(n([O-])c3cc(Br)ccc31)CCC2",
    "IC50": "19.4 µM"
  },
  {
    "COMPOUND": "Oc1cccc(C=NCc2ccccc2)c1O",
    "IC50": "1.9 µM"
  },
  {
    "COMPOUND": "O=C(NCCc1c[nH]c2ccccc12)c1ccc(S(=O)(=O)NCc2ccco2)cc1",
    "IC50": "33.3 µM"
  },
  {
    "COMPOUND": "O=C(Cc1cc(=O)[nH][nH]1)N/N=C/C=C/c1ccccc1",
    "IC50": "26.4 µM"
  },
  {
    "COMPOUND": "CCOC(=O)C1=C(N)n2c(s/c(=C\\c3ccco3)c2=O)=C(C(=O)OC(C)C)C1c1ccco1 (stereo not drawn)",
    "IC50": "1.23 µM"
  },
  {
    "COMPOUND": "CC(=C\\c1ccco1)/C=C1/SC(=S)N(CC(=O)O)C1=O",
    "IC50": "14.7 µM"
  },
  {
    "COMPOUND": "NS(=O)(=O)c1ccc(N=Nc2ccc(=O)[nH]c2O)cc1",
    "IC50": "5.22 µM"
  },
  {
    "COMPOUND": "O=C(/C=C/c1ccco1)NC(=S)Nc1ccccc1N1CCOCC1",
    "IC50": "11.5 µM"
  },
  {
    "COMPOUND": "COc1cc(/C=C2\\CC/C(=C\\c3cc(OC)c(O)c(OC)c3)C2=O)cc(OC)c1O",
    "IC50": "1.56 µM"
  },
  {
    "COMPOUND": "C/C(=N\\Nc1ccc([N+](=O)[O-])cc1[N+](=O)[O-])c1cc2c(ccc3ccccc32)oc1=O",
    "IC50": "2.92 µM"
  },
  {
    "COMPOUND": "O=C1CC(=O)N(Cc2ccco2)C(=S)N1",
    "IC50": "2.21 µM"
  },
  {
    "COMPOUND": "CC[n+]1ccc(C)c2cc(S(=O)C(F)(F)F)ccc21 (stereo not drawn)",
    "IC50": "8.8 µM"
  },
  {
    "COMPOUND": "O=c1c2cc(N3CCOCC3)ccc2[nH]c(=S)n1Cc1ccco1",
    "IC50": "7.24 µM"
  },
  {
    "COMPOUND": "COc1cc(C(=O)OCCN2CCCCC2)ccc1O",
    "IC50": "45.4 µM"
  },
  {
    "COMPOUND": "COCCCNC(=O)/C(C#N)=C/c1ccc(OCC(=O)O)c(OC)c1",
    "IC50": "4.12 µM"
  },
  {
    "COMPOUND": "COc1cccc2c1NC(C(=O)O)C1CC=CC21 (stereo not drawn)",
    "IC50": "< 0.398 µM"
  },
  {
    "COMPOUND": "NC(=S)N=Nc1c(O)cc(O)c2[nH]c(=O)ccc12",
    "IC50": "8.04 µM"
  }
]

----------
# SYSTEM: Virion infectivity factor (Human immunodeficiency virus type 1 group M subtype B (isolate BH10)) + Virion infectivity factor (Human immunodeficiency virus type 1 group M subtype B (isolate BRU/LAI)) + Virion infectivity factor (Human immunodeficiency virus type 1 group M subtype B (isolate PCV12)) + Virion infectivity factor (Human immunodeficiency virus type 1 group M subtype B (isolate HXB2)) + DNA dC->dU-editing enzyme APOBEC-3G (Homo sapiens) (UniProt P69720+P69721+P69722+P69723+Q9HC16)
# EXPERIMENT: HIV-1 Vif–A3G interaction blockers – biochemical, TR-FRET, GST-Vif 1-94, biotin-A3G peptide, dose response retest, primary screen (AID 1117319);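 note: Vif residues 1-94 fused to GST binding biotinylated APOBEC3G peptide 110-148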
# COND: TR-FRET GST-Vif / biotin-A3G peptide binding
pIC50: −log10 of the molar value. Records with an inconclusive call do not appear.
pIC50 values for the compounds below.
EXPERIMENTAL_ENDPOINT: pIC50

[
  {
    "COMPOUND": "O=C(COc1ccc(Cl)cc1)N1CCN(S(=O)(=O)c2ccc(Cl)cc2)CC1",
    "MEASURED": 4.29
  },
  {
    "COMPOUND": "O=c1nc2s/c(=C\\c3ccco3)c(=O)n2nc1Cc1ccccc1",
    "MEASURED": 5.38
  },
  {
    "COMPOUND": "CCOC(=O)c1ccc2c(c1)C1C=CCC1C(C(=O)O)N2 (stereo unspecified)",
    "MEASURED": 5.90
  },
  {
    "COMPOUND": "CC(C)NC(=O)c1cc(-c2ccco2)nn1-c1ccc(Cl)cc1",
    "MEASURED": 4.87
  },
  {
    "COMPOUND": "O=[N+]([O-])c1ccc2c([N+](=O)[O-])ccc3c2c1CC3",
    "MEASURED": 4.91
  },
  {
    "COMPOUND": "COc1ccc(OC)c(NC(=O)NCc2ccc(F)cc2)c1",
    "MEASURED": 4.23
  },
  {
    "COMPOUND": "COc1ccccc1N1C(=O)NC(=O)/C(=C/c2ccc([N+](=O)[O-])s2)C1=O",
    "MEASURED": 5.16
  },
  {
    "COMPOUND": "N#C/C=C\\Oc1ccc(Cl)cc1N",
    "MEASURED": 4.30
  },
  {
    "COMPOUND": "Cc1ccc(Nc2nc(C(=O)NCc3ccco3)cs2)cc1",
    "MEASURED": 4.11
  },
  {
    "COMPOUND": "COc1cc(C2C(C(=O)c3ccco3)=C(O)C(=O)N2c2cc(C)on2)cc(Br)c1O (stereo unspecified)",
    "MEASURED": 4.58
  },
  {
    "COMPOUND": "O=C1OC(c2ccc(F)cc2)=C/C1=C\\c1ccc([N+](=O)[O-])o1",
    "MEASURED": 5.06
  }
]
